inhibition at 3 µM overview
# Measurement target: Human CaV2.2 channels (Homo sapiens)
# Construct: expressed in transfected cells
# Sequence (Q00975 whole entry): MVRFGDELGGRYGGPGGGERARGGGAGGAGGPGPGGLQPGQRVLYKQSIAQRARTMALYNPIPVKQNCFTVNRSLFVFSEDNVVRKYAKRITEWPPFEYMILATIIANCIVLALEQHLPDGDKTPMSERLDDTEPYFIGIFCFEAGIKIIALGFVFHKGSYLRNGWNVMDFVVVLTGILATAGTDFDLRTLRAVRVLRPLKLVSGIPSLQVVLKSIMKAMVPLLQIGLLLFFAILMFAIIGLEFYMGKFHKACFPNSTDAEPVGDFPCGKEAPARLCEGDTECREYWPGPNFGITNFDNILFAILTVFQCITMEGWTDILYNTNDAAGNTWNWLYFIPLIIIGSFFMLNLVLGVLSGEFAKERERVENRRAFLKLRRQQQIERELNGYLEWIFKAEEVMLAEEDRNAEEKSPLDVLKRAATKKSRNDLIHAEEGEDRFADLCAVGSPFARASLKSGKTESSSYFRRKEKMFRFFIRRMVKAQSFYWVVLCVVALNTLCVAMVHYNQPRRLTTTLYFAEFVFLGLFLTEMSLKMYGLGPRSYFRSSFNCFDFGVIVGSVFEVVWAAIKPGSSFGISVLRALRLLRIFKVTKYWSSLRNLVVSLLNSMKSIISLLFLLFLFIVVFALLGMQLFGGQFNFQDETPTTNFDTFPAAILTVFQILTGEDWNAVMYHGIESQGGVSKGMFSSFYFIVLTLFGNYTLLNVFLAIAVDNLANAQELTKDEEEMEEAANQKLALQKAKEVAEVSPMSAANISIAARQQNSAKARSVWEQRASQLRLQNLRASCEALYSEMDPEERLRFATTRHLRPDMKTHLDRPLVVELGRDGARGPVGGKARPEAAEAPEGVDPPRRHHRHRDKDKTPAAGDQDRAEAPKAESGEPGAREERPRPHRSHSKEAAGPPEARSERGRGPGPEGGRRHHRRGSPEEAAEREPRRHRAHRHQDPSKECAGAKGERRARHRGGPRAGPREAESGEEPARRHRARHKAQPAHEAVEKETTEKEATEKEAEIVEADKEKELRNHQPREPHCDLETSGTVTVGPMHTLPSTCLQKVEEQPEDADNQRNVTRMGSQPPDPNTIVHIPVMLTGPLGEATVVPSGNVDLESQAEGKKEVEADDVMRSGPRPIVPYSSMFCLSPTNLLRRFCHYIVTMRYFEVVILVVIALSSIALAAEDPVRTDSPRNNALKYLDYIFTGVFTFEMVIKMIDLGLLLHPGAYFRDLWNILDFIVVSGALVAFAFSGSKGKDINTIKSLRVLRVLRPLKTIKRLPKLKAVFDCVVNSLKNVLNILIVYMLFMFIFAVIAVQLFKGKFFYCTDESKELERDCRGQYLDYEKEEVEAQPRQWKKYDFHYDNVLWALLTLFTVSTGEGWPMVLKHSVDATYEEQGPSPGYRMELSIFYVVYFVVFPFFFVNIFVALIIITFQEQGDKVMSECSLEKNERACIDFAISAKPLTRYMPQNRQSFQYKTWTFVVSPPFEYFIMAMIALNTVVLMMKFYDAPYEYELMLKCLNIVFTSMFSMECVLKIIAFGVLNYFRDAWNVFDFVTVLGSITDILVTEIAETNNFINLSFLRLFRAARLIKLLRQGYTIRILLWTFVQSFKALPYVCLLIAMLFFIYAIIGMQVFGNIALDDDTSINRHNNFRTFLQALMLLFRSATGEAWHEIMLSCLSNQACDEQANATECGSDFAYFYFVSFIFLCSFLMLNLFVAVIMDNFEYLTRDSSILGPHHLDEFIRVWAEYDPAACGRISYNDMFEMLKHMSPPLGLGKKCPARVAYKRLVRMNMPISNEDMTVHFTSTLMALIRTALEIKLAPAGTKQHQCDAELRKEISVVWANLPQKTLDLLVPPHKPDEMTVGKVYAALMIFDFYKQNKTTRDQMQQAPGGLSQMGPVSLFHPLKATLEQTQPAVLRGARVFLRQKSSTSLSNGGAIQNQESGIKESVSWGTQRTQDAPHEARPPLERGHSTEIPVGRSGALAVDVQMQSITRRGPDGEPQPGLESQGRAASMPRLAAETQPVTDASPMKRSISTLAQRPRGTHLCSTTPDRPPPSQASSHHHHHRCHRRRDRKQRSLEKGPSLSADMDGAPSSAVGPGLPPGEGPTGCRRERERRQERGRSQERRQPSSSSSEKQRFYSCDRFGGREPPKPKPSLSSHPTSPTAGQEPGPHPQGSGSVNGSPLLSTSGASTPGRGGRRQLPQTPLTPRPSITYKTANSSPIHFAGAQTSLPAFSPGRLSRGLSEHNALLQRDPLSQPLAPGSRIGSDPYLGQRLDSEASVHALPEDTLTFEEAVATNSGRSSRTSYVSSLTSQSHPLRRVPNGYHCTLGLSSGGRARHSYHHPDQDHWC
# Sequence (P54289 25-1103, further chain): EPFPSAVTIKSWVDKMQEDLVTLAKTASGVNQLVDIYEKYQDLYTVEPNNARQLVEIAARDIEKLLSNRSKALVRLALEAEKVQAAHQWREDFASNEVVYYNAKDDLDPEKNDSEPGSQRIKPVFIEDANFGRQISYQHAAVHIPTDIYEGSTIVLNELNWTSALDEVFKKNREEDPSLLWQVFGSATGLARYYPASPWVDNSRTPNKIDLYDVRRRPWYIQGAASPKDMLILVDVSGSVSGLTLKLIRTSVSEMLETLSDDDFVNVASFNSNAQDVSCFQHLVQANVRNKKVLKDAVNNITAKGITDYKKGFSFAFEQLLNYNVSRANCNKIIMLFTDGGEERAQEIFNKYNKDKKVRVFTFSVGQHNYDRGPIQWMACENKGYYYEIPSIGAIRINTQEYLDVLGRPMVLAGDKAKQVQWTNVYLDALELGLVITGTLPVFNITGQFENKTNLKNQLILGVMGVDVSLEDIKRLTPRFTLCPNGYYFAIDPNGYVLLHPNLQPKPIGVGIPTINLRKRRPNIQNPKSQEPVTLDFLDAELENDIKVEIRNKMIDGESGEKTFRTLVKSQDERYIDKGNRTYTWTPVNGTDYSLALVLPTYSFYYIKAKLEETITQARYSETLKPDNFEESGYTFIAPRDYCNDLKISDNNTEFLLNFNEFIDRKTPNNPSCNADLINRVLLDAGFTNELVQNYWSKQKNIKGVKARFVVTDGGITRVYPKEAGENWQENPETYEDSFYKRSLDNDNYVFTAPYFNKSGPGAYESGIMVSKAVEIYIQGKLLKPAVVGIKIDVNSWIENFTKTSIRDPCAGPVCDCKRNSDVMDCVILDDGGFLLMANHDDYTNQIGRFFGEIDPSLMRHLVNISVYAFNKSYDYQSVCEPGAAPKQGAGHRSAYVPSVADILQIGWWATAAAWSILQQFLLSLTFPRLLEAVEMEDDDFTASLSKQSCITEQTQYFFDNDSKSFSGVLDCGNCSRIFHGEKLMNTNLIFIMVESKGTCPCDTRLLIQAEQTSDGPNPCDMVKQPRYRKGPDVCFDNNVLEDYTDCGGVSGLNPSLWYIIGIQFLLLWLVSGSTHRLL
# Sequence (P54284 whole entry, further chain): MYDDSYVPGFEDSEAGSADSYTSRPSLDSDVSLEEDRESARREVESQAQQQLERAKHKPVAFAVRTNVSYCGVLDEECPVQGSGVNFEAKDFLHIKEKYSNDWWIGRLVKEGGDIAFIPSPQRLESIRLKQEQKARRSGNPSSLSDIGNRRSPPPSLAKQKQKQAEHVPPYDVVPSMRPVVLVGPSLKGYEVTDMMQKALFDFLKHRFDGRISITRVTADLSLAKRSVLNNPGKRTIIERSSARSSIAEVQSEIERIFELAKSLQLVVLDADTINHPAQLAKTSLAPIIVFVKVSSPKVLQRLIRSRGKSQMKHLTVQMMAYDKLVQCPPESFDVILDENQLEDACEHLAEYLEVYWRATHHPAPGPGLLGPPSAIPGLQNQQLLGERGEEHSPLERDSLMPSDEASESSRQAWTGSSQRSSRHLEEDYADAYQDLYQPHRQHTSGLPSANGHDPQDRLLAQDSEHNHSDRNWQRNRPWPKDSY
# Assay: Fluorescent assay for CaV2.2 channels using potassium depolarization to induce channel opening (FLIPR, Fluo-4)
# Assay type: cell-based
# Experimental parameters: 3 μM test compound, 30 mM KCl, HEK293 cells stably expressing human CaV2.2; read-out: %-Inhib (CaV2.2) @3 μM @30 mM KCl

Some solved cases for reference:
Cc1c(-c2ccc(Cl)cc2)c(C(=O)N(C)Cc2ccncn2)n(Cc2ccccc2)c1C(F)(F)F    > 95%
Cc1c(-c2ccc(Cl)cc2)c(C(=O)N(C)CCS(C)(=O)=O)n(Cc2ccccc2)c1C(F)(F)F    > 95%
COC1CCN(C(=O)c2c(-c3ccc(Cl)cc3)c(C)c(C(F)(F)F)n2Cc2ccccc2)CC1    > 95%
CN(CC(C)(C)C(N)=O)C(=O)c1c(-c2ccc(Cl)cc2)cc(C(F)(F)F)n1Cc1ccccc1    > 95%
Cc1c(-c2ccc(F)c(Cl)c2)c(C(=O)N2CC(O)C2)n(Cc2ccccc2)c1C(F)(F)F    40 to 75%

Query molecule follows.
[Q] What does the record list as inhibition at 3 µM for `Cc1c(-c2ccc(Cl)c(F)c2)c(C(=O)N2CCOC(C)(C)C2)n(Cc2ccccc2)c1C(F)(F)F` ?
[A] 75 to 95%
